# targetEntity: human prostate specific membrane antigen (PSMA), full-length, on cells (human, UniProt Q04609 1-750)
# Sequence (Q04609 whole entry): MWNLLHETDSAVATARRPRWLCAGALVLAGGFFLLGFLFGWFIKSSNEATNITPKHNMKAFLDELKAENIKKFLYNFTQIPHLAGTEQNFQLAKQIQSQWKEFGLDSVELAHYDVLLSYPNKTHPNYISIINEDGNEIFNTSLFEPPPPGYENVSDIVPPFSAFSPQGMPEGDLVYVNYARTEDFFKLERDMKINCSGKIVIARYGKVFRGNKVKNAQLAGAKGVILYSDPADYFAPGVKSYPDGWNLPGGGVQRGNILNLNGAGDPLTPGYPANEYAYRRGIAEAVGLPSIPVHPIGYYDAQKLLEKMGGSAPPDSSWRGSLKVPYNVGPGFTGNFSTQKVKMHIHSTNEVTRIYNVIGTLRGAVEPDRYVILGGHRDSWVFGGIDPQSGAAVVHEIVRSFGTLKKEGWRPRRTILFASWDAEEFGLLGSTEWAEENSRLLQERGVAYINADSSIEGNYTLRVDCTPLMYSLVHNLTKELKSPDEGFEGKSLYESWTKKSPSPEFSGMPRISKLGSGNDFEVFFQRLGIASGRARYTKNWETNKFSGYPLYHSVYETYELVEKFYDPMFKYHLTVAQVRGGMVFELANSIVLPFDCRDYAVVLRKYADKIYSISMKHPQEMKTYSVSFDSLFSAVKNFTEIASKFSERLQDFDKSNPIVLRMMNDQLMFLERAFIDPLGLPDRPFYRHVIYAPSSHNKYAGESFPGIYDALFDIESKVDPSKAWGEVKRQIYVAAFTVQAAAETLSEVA
# method: cell-based or functional assay
quantityName: Mean Max % Cell kill, DU145 PSMA cells, 48 h (%)

>>> assayresult("HiPEG A-His6 val-cit-PAB-MMAE (VHH, HiPEG val-cit-PAB-MMAE attached via the C-terminal His6-tag, DAR 1) VHH: EVQLVESGGGVVQPGRSLRLSCAASGFSFSGYGMHWVRQAPGKGLEWVAYISYDGSNKYYADSVKGRFTISRDNSKNTLYLQMNSLRAEDTAVYYCAKDPAWGLRLGESSSYDFDIWGQGTMVTVSS")
74
>>> assayresult("HiPEG A-2-A-His6 val-cit-PAB-MMAE (VHH, HiPEG val-cit-PAB-MMAE attached via the C-terminal His6-tag, DAR 1) EVQLVESGGGVVQPGRSLRLSCAASGFSFSGYGMHWVRQAPGKGLEWVAYISYDGSNKYYADSVKGRFTISRDNSKNTLYLQMNSLRAEDTAVYYCAKDPAWGLRLGESSSYDFDIWGQGTMVTVSSGGGGSGGGGSGGGGSGGGGSGGGGSGGGGSEVQLVESGGGVVQPGRSLRLSCAASGFSFSGYGMHWVRQAPGKGLEWVAYISYDGSNKYYADSVKGRFTISRDNSKNTLYLQMNSLRAEDTAVYYCAKDPAWGLRLGESSSYDFDIWGQGTMVTVSSAAAHHHHHH")
57
